Origin of values: patent US20170008955A1

- TARGET_UNDER_TEST: T1, cSNK:BSA conjugate (bovine, head-to-tail cyclized; conjugated to BSA carrier)
- T1 construct: also called BSA-cSNK
- PROCEDURE_DETAILS: BLI 2:1 fit, site 2 (kdis2); 6.25 nM row
Recorded koff by entry
Reply numerically in s⁻¹, unit not repeated.

Answered examples (2):
BINDER	koff [s⁻¹]
hu5E3-IgG2 (antibody, V domains shown, human IgG2/kappa; also called humanized 5E3 IgG2) VH: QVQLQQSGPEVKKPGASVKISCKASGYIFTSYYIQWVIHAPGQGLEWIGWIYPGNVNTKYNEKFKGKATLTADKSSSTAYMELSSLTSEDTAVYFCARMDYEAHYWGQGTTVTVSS VL: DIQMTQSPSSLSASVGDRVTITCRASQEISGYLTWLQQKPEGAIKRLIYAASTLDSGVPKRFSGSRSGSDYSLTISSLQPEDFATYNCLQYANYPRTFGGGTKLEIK	0.0338
hu5E3-IgG1 (antibody, V domains shown, human IgG1/kappa; also called humanized 5E3 IgG1; IHA variant) VH: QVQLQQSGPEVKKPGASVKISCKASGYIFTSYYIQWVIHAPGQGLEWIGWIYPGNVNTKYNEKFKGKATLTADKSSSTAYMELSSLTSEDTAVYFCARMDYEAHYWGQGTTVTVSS VL: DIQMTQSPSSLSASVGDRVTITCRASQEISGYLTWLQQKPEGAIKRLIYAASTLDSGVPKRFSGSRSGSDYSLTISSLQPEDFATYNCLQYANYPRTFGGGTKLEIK	0.012

Now look at this entry.
Quick check: koff of murine monoclonal antibody 5E3 (antibody, V domains shown, mouse antibody of the 5E3 hybridoma; also called murine 5E3; m5E3) VH: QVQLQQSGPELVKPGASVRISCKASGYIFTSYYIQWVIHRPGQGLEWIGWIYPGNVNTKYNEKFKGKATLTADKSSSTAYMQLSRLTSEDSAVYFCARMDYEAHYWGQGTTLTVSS VL: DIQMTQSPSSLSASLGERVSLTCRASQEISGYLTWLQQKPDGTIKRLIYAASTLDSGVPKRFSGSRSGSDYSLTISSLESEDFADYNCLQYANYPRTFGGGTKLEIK ?
0.0226
